In this section we review reported pKi values for a set of molecules.
# measurement_target: Synaptic vesicular amine transporter (Rattus norvegicus, UniProt Q01827)
# Sequence (Q01827 whole entry): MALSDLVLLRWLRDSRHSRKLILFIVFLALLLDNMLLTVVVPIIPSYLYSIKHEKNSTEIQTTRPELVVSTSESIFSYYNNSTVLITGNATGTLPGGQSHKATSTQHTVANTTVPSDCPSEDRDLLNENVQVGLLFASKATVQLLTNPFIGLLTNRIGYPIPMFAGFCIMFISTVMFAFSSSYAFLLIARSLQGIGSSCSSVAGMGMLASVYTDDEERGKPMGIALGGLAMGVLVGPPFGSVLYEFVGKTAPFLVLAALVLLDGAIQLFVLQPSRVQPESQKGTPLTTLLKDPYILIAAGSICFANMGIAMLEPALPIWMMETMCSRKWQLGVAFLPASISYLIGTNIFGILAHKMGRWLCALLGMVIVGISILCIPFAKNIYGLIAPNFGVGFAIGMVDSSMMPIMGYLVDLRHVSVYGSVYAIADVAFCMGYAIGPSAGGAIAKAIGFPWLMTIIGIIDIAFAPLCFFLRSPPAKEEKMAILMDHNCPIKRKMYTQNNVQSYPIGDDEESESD
# protocol_text: Inhibition of VMAT2-mediated [3H]-dopamine uptake in rat striata isolated synaptic vesicles by liquid scintillation spectroscopy
pKi: −log10 of the molar value.
quantity: pKi

1) c1cc2c(cc1CC[C@@H]1C[C@@H](CCc3ccc4c(c3)OCO4)N1)OCO2 (racemic) :: 7.51
2) c1cc2c(cc1CC[C@@H]1C[C@H](CCc3ccc4c(c3)OCO4)N1)OCO2 :: 7.26
3) c1ccc(CC[C@H]2CCC[C@@H](CCc3ccccc3)N2)cc1 :: 7.37
4) c1ccc(CC[C@@H]2C[C@@H](CCc3ccccc3)N2)cc1 (racemic) :: 7.32
5) COc1ccc(CC[C@@H]2C[C@@H](CCc3ccc(OC)cc3)N2)cc1 (racemic) :: 7.18
6) COc1ccc(CC[C@@H]2C[C@H](CCc3ccc(OC)cc3)N2)cc1 :: 7.62
7) c1ccc(CC[C@@H]2C[C@H](CCc3ccccc3)N2)cc1 :: 7.21
